Below, each of the molecules is paired with its reported MIC value.
Tested on: G(−) bacterial strains
Assay: Dilution antimicrobial susceptibility tests (MIC, NCCLS agar dilution / broth dilution)
Assay type: cell-based, Gram-negative organisms
Conditions: strain #9 Enterobacter cloacae, Cf-R; unit assumed
Use µg/mL as the unit, but write only the number.

# example entries with known answers
[[record]]
molecule = "C[C@@H](O)C1C(=O)N2C(C(=O)O)=C(CN3CC(N)C3)[C@H](C)C12 (stereo partly shown)"
measured_result = 0.5

[[record]]
molecule = "C[C@@H](O)C1C(=O)N2C(C(=O)O)=C(CN3CC[C@H](C(=O)NC(=N)N)C3)[C@H](C)C12 (stereo partly shown)"
measured_result = 1

[[record]]
molecule = "CC(=O)N[C@H]1CCN(CC2=C(C(=O)O)N3C(=O)C([C@@H](C)O)C3[C@H]2C)C1 (stereo partly shown)"
measured_result = 2


Lab note: next molecule to report on.
The molecule C[C@@H](O)C1C(=O)N2C(C(=O)O)=C(CN3CC[C@H](C(=O)NCC(N)=O)C3)[C@H](C)C12 (stereo partly shown) showed MIC equal to 1

====

Tested on: G(−) bacterial strains
Assay: Dilution antimicrobial susceptibility tests (MIC, NCCLS agar dilution / broth dilution)
Assay type: cell-based, Gram-negative organisms
Details: strain #24 Serratia marcescens; unit assumed
Experimental Endpoint: MIC (µg/mL)
Use µg/mL as the unit, but write only the number.

[[record]]
compound = "C[C@@H](O)[C@H]1C(=O)N2C(C(=O)O)=C(CN3CC(O)C(NC(=N)N)C3)[C@H](C)[C@H]12 (mixture of isomers) [Compound 176]"
experimental_endpoint = "MIC"
measurement_unit = "µg/mL"
measured_result = 0.25

[[record]]
compound = "C[C@@H](O)C1C(=O)N2C(C(=O)O)=C(CN3CC(N)C3)[C@H](C)C12 (stereo partly shown) [Compound 93]"
experimental_endpoint = "MIC"
measurement_unit = "µg/mL"
measured_result = 1

[[record]]
compound = "C[C@@H](O)C1C(=O)N2C(C(=O)O)=C(CN3CC[C@H](NS(N)(=O)=O)C3)[C@H](C)C12 (stereo partly shown) [Compound 72]"
experimental_endpoint = "MIC"
measurement_unit = "µg/mL"
measured_result = 1

[[record]]
compound = "C[C@@H](O)C1C(=O)N2C(C(=O)O)=C(CN3CC[C@H](O)C3)[C@H](C)C12 (stereo partly shown) [Compound 146]"
experimental_endpoint = "MIC"
measurement_unit = "µg/mL"
measured_result = 2

[[record]]
compound = "C[C@@H](O)C1C(=O)N2C(C(=O)[O-])=C(C[N+]3(C)CC[C@H](NC(=N)N)C3)[C@H](C)C12 (stereo partly shown) [Compound 67]"
experimental_endpoint = "MIC"
measurement_unit = "µg/mL"
measured_result = 0.5


The compound CN[C@H]1CCN(CC2=C(C(=O)O)N3C(=O)C([C@@H](C)O)C3[C@H]2C)C1 (stereo partly shown) [Compound 43] showed MIC equal to 1

The compound C[C@@H](O)C1C(=O)N2C(C(=O)O)=C(CN3CC[C@@H](NC(=N)N)C3)[C@H](C)C12 (stereo partly shown) [Compound 156] showed MIC equal to 2

====

Below, each of the compounds is paired with its reported MIC value.
Test system: G(−) bacterial strains
Assay: Dilution antimicrobial susceptibility tests (MIC, NCCLS agar dilution / broth dilution)
Assay type: cell-based, Gram-negative organisms
Details: strain #8 Enterobacter cloacae, Cf-R, B+; unit assumed
Use µg/mL as the unit, but write only the number.

[[record]]
compound = "C[C@@H](O)C1C(=O)N2C(C(=O)O)=C(CN3CC[C@H](CNC(=N)N)C3)[C@H](C)C12 (some centres unmarked) [Compound 99]"
experimental_endpoint = "MIC"
measured_result = 0.5

[[record]]
compound = "CC(O)C1C(=O)N2C(C(=O)O)=C(CN3CCC(C(=N)N)C3)C(C)C12 (centres unmarked) [Compound 185a]"
experimental_endpoint = "MIC"
measured_result = 0.063

[[record]]
compound = "C[C@@H](O)C1C(=O)N2C(C(=O)O)=C(CN3CC[C@H](NS(N)(=O)=O)C3)[C@H](C)C12 (some centres unmarked) [Compound 72]"
experimental_endpoint = "MIC"
measured_result = 0.25

[[record]]
compound = "C[C@@H](O)C1C(=O)N2C(C(=O)O)=C(CN3CC[C@H](C(N)=O)C3)[C@H](C)C12 (some centres unmarked) [Compound 12]"
experimental_endpoint = "MIC"
measured_result = 0.13


Lab note: next compound to report on.
GET /values?item= C[C@@H](O)C1C(=O)N2C(C(=O)[O-])=C(C[N+]3(C)CC[C@H](NC(=N)N)C3)[C@H](C)C12 (some centres unmarked) [Compound 67] &system= G(−) bacterial strains returns MIC: 0.13
